# Organism: Rattus norvegicus
# TEST: Open TG-GATES - Regimen: Daily Repeat
# Type: toxicity, organism-based, Sprague-Dawley
# Design: regimen Daily Repeat, gender Male, age 6 weeks
# SETTINGS: in vivo, po, 0 mg/kg, […], tissue Kidney, route gavage, dose level Control, time 7 day
MEASURED_QUANTITY: KIDNEY_L (g)

MOLECULE: CCCc1cc(=O)[nH]c(=S)[nH]1
OUTPUT_UNIT: g
MEAS_VALUE: 1.1

MOLECULE: Cc1nnc2n1-c1ccc(Cl)cc1C(c1ccccc1Cl)=NC2
OUTPUT_UNIT: g
MEAS_VALUE: 1.1

MOLECULE: NC1=NC(=O)C(c2ccccc2)O1 (stereo not drawn)
OUTPUT_UNIT: g
MEAS_VALUE: 1.1

MOLECULE: O=C(OC[C@H]1O[C@@H](OC(=O)c2cc(O)c(O)c(OC(=O)c3cc(O)c(O)c(O)c3)c2)[C@H](OC(=O)c2cc(O)c(O)c(OC(=O)c3cc(O)c(O)c(O)c3)c2)[C@@H](OC(=O)c2cc(O)c(O)c(OC(=O)c3cc(O)c(O)c(O)c3)c2)[C@@H]1OC(=O)c1cc(O)c(O)c(OC(=O)c2cc(O)c(O)c(O)c2)c1)c1cc(O)c(O)c(OC(=O)c2cc(O)c(O)c(O)c2)c1
OUTPUT_UNIT: g
MEAS_VALUE: 1.1

MOLECULE: Nc1c2c(nc3ccccc13)CCCC2
OUTPUT_UNIT: g
MEAS_VALUE: 1.1

MOLECULE: COC(=O)C1=C(C)NC(C)=C(C(=O)OC)C1c1ccccc1[N+](=O)[O-]
OUTPUT_UNIT: g
MEAS_VALUE: 1

MOLECULE: Brc1ccccc1
OUTPUT_UNIT: g
MEAS_VALUE: 1

MOLECULE: CN(C)CCC(c1ccc(Cl)cc1)c1ccccn1 (stereo not drawn)
OUTPUT_UNIT: g
MEAS_VALUE: 1

MOLECULE: CC(C)NNC(=O)c1ccncc1
OUTPUT_UNIT: g
MEAS_VALUE: 1

MOLECULE: CN1C(=O)CCS(=O)(=O)C1c1ccc(Cl)cc1 (stereo not drawn)
OUTPUT_UNIT: g
MEAS_VALUE: 1

MOLECULE: CN/C(=N/CCSCc1nc[nH]c1C)NC#N
OUTPUT_UNIT: g
MEAS_VALUE: 1.1

MOLECULE: CCOc1ccc(NC(C)=O)cc1
OUTPUT_UNIT: g
MEAS_VALUE: 1.1

MOLECULE: CNC(=C[N+](=O)[O-])NCCSCc1ccc(CN(C)C)o1
OUTPUT_UNIT: g
MEAS_VALUE: 1.1

* * *

# Species: Rattus norvegicus
# TEST: Open TG-GATES - Regimen: Daily Repeat
# Assay type: toxicity, organism-based, Sprague-Dawley
# Parameters: regimen Daily Repeat, gender Male, age 6 weeks
# SETTINGS: in vivo, po, 0 mg/kg, […], tissue Plasma, route gavage, dose level Control, time 28 day

COMPOUND: CCCc1cc(=O)[nH]c(=S)[nH]1
ALP [IU/L]: 612.6
--
COMPOUND: CNC(=C[N+](=O)[O-])NCCSCc1ccc(CN(C)C)o1
ALP [IU/L]: 677.6
--
COMPOUND: COC(=O)C1=C(C)NC(C)=C(C(=O)OC)C1c1ccccc1[N+](=O)[O-]
ALP [IU/L]: 1068.6
--
COMPOUND: NC1=NC(=O)C(c2ccccc2)O1 (stereo not given)
ALP [IU/L]: 980.4
--
COMPOUND: CC(C)NNC(=O)c1ccncc1
ALP [IU/L]: 1067.8

* * *

# Organism: Rattus norvegicus
# TEST: Open TG-GATES - Regimen: Daily Repeat
# Type: toxicity, organism-based, Sprague-Dawley
# Parameters: regimen Daily Repeat, gender Male, age 6 weeks
# SETTINGS: in vivo, po, 100 mg/kg, […], tissue Blood, route gavage, dose level Low, time 28 day
MEASURED_QUANTITY: Ret (%)

COMPOUND: COC(=O)C1=C(C)NC(C)=C(C(=O)OC)C1c1ccccc1[N+](=O)[O-] [NIFEDIPINE]
MEASURED_QUANTITY: Ret
OUTPUT_UNIT: %
MEAS_VALUE: 9.2
--
COMPOUND: CCOc1ccc(NC(C)=O)cc1 [PHENACETIN]
MEASURED_QUANTITY: Ret
OUTPUT_UNIT: %
MEAS_VALUE: 3
--
COMPOUND: CN/C(=N/CCSCc1nc[nH]c1C)NC#N [CIMETIDINE]
MEASURED_QUANTITY: Ret
OUTPUT_UNIT: %
MEAS_VALUE: 2.8
--
COMPOUND: CNC(=C[N+](=O)[O-])NCCSCc1ccc(CN(C)C)o1 [RANITIDINE]
MEASURED_QUANTITY: Ret
OUTPUT_UNIT: %
MEAS_VALUE: 1.8
--
COMPOUND: O=C(OC[C@H]1O[C@@H](OC(=O)c2cc(O)c(O)c(OC(=O)c3cc(O)c(O)c(O)c3)c2)[C@H](OC(=O)c2cc(O)c(O)c(OC(=O)c3cc(O)c(O)c(O)c3)c2)[C@@H](OC(=O)c2cc(O)c(O)c(OC(=O)c3cc(O)c(O)c(O)c3)c2)[C@@H]1OC(=O)c1cc(O)c(O)c(OC(=O)c2cc(O)c(O)c(O)c2)c1)c1cc(O)c(O)c(OC(=O)c2cc(O)c(O)c(O)c2)c1 [TANNIC ACID]
MEASURED_QUANTITY: Ret
OUTPUT_UNIT: %
MEAS_VALUE: 2.8
--
COMPOUND: Cc1nnc2n1-c1ccc(Cl)cc1C(c1ccccc1Cl)=NC2 [TRIAZOLAM]
MEASURED_QUANTITY: Ret
OUTPUT_UNIT: %
MEAS_VALUE: 2.4

* * *

# Species: Rattus norvegicus
# TEST: Open TG-GATES - Regimen: Single
# Assay type: toxicity, organism-based, Sprague-Dawley
# Parameters: regimen Single, gender Male, age 6 weeks
# SETTINGS: in vivo, po, 0 mg/kg, 6 h, tissue Plasma, route gavage, dose level Control

COMPOUND: Brc1ccccc1
OUTPUT_UNIT: meq/L
Na: 141.4
--
COMPOUND: CS(=O)(=O)O.Cc1ccc(NC(=O)c2ccc(CN3CCN(C)CC3)cc2)cc1Nc1nccc(-c2cccnc2)n1 [IMATINIB MESYLATE]
OUTPUT_UNIT: meq/L
Na: 139.7
--
COMPOUND: CN1C(=O)CCS(=O)(=O)C1c1ccc(Cl)cc1 (configuration not stated)
OUTPUT_UNIT: meq/L
Na: 141.8
--
COMPOUND: NC1=NC(=O)C(c2ccccc2)O1 (configuration not stated)
OUTPUT_UNIT: meq/L
Na: 140.4
--
COMPOUND: CN/C(=N/CCSCc1nc[nH]c1C)NC#N
OUTPUT_UNIT: meq/L
Na: 140.6
--
COMPOUND: CCCc1cc(=O)[nH]c(=S)[nH]1
OUTPUT_UNIT: meq/L
Na: 137.6
--
COMPOUND: COC(=O)C1=C(C)NC(C)=C(C(=O)OC)C1c1ccccc1[N+](=O)[O-]
OUTPUT_UNIT: meq/L
Na: 144

* * *

# Species on record: Rattus norvegicus
# TEST: Open TG-GATES - Regimen: Daily Repeat
# Format: toxicity, organism-based, Sprague-Dawley
# Design: regimen Daily Repeat, gender Male, age 6 weeks
# SETTINGS: in vivo, po, 1000 mg/kg, […], tissue Blood, route gavage, dose level High, time 7 day

MOLECULE: CNC(=C[N+](=O)[O-])NCCSCc1ccc(CN(C)C)o1 [RANITIDINE]
Bas / %: 0
--
MOLECULE: CN/C(=N/CCSCc1nc[nH]c1C)NC#N [CIMETIDINE]
Bas / %: 0
--
MOLECULE: COC(=O)C1=C(C)NC(C)=C(C(=O)OC)C1c1ccccc1[N+](=O)[O-] [NIFEDIPINE]
Bas / %: 0.4
--
MOLECULE: Cc1nnc2n1-c1ccc(Cl)cc1C(c1ccccc1Cl)=NC2 [TRIAZOLAM]
Bas / %: 0
--
MOLECULE: CCOc1ccc(NC(C)=O)cc1 [PHENACETIN]
Bas / %: 0.4
--
MOLECULE: O=C(OC[C@H]1O[C@@H](OC(=O)c2cc(O)c(O)c(OC(=O)c3cc(O)c(O)c(O)c3)c2)[C@H](OC(=O)c2cc(O)c(O)c(OC(=O)c3cc(O)c(O)c(O)c3)c2)[C@@H](OC(=O)c2cc(O)c(O)c(OC(=O)c3cc(O)c(O)c(O)c3)c2)[C@@H]1OC(=O)c1cc(O)c(O)c(OC(=O)c2cc(O)c(O)c(O)c2)c1)c1cc(O)c(O)c(OC(=O)c2cc(O)c(O)c(O)c2)c1 [TANNIC ACID]
Bas / %: 0
